SYSTEM: human recombinant HDAC6 (Homo sapiens)
Construct: purchased Calbiochem Inc. 382180
ASSAY INFO: HDAC6 enzyme activity inhibition (HDAC Fluorimetric Drug Discovery Kit)
Format: biochemical
CONDITION LABEL: human recombinant HDAC6; IC50 calculated with GraphPad Prism
PARAMETER MEASURED: IC50 (nM)
A number alone suffices; assume nM.

*Q* Look at this compound and give its reported IC50. CC(C)N1CC(N2CCc3cc(-c4cn(Cc5ccc(-c6nnc(C(F)F)o6)cc5F)nn4)ccc3C2)C1
*A* 36.2

*Q* Look at this compound and give its reported IC50. CC(C)N1CCC(Nc2cccc(-c3cn(Cc4ccc(-c5nnc(C(F)F)o5)cc4F)nn3)c2F)CC1
*A* 20.6

*Q* Look at this compound and give its reported IC50. Fc1cc(-c2nnc(C(F)F)o2)ccc1Cn1cc(-c2ccccc2)nn1
*A* 57.9

*Q* Look at this compound and give its reported IC50. OC1(c2cn(Cc3ccc(-c4nnc(C(F)F)o4)cn3)nn2)COC1
*A* 349

----------
SYSTEM: human recombinant HDAC6 (Homo sapiens)
Construct: purchased Calbiochem Inc. 382180
ASSAY INFO: HDAC6 enzyme activity inhibition (HDAC Fluorimetric Drug Discovery Kit)
Format: biochemical
CONDITION LABEL: human recombinant HDAC6, same protocol as HDAC1
What IC50 was measured for each of the following?
A number alone suffices; assume µM.

*Q* Look at this molecule and give its reported IC50. CC1CCN(Cc2cc(Cl)cc(-c3cn(Cc4ncc(-c5nnc(C(F)F)o5)cc4F)nn3)c2)CC1 [Compound 19093]
*A* 0.236

*Q* Look at this molecule and give its reported IC50. Fc1c(-c2cn(Cc3ccc(-c4nnc(C(F)F)o4)cn3)nn2)cccc1N1CCN(CC2(F)CC2)CC1 [Compound 4600]
*A* 0.0326

*Q* Look at this molecule and give its reported IC50. CC(C)N1Cc2cccc(-c3cn(Cc4ccc(-c5nnc(C(F)F)o5)cc4)nn3)c2C1 [Compound 4531]
*A* 0.121

*Q* Look at this molecule and give its reported IC50. Fc1cc(-c2nnc(C(F)F)o2)ccc1Cn1cc(-c2ccccc2CN2CCCC2)nn1 [Compound 4585]
*A* 0.21

*Q* Look at this molecule and give its reported IC50. Fc1cc(-c2nnc(C(F)F)o2)ccc1Cn1cc(-c2ccc(CN3CC[C@@H](F)C3)nc2)nn1 [Compound 17774]
*A* 0.0557

*Q* Look at this molecule and give its reported IC50. FC(F)c1nnc(-c2ccc(Cn3cc(-c4cccc(C5CN(C6CCC6)C5)c4)nn3)cc2)o1 [Compound 4510]
*A* 0.023

*Q* Look at this molecule and give its reported IC50. Fc1cc(-c2nnc(C(F)F)o2)ccc1Cn1cc(-c2cccc3c2CN(C2COC2)C3)nn1 [Compound 4538]
*A* 0.0927

----------
SYSTEM: human recombinant HDAC6 (Homo sapiens, UniProt Q9UBN7)
Construct: purchased Calbiochem Inc. 382180
ASSAY INFO: HDAC6 enzyme activity inhibition (HDAC Fluorimetric Drug Discovery Kit)
Assay type: biochemical
CONDITION LABEL: HDAC1 IC50 / HDAC6 IC50
PARAMETER MEASURED: HDAC6 selectivity (fold)
State the value, then name its unit.

*Q* Look at this molecule and give its reported HDAC6 selectivity (fold). CC(C)N1CC(N2CCC(c3cccc(-c4cn(Cc5ccc(-c6nnc(C(F)F)o6)cc5F)nn4)c3)CC2)C1
*A* 1547 fold

*Q* Look at this molecule and give its reported HDAC6 selectivity (fold). Fc1cc(-c2nnc(C(F)F)o2)ccc1Cn1cc(-c2cccc3[nH]ccc23)nn1
*A* 1992 fold

*Q* Look at this molecule and give its reported HDAC6 selectivity (fold). CN1C[C@@H]2C[C@H]1CN2c1cc(-c2cn(Cc3ccc(-c4nnc(C(F)F)o4)cc3)nn2)ccc1F
*A* 747 fold

*Q* Look at this molecule and give its reported HDAC6 selectivity (fold). CC(C)N1CCc2cc(-c3cn(Cc4ccc(-c5nnc(C(F)F)o5)cn4)nn3)ccc2C1
*A* 880 fold

*Q* Look at this molecule and give its reported HDAC6 selectivity (fold). FC(F)c1nnc(-c2ccc(Cn3cc(-c4ccc5c(CN6CCCC6)c[nH]c5c4)nn3)cc2)o1
*A* 5882 fold

*Q* Look at this molecule and give its reported HDAC6 selectivity (fold). Fc1cc(-c2nnc(C(F)F)o2)ccc1Cn1cc(-c2ccc3c(CN4CCCC4)c[nH]c3c2)nn1
*A* 3649 fold

----------
What IC50 was measured for each of the following?
SYSTEM: human recombinant HDAC6 (Homo sapiens, UniProt Q9UBN7)
Construct: purchased Calbiochem Inc. 382180
Sequence (Q9UBN7 1-1215): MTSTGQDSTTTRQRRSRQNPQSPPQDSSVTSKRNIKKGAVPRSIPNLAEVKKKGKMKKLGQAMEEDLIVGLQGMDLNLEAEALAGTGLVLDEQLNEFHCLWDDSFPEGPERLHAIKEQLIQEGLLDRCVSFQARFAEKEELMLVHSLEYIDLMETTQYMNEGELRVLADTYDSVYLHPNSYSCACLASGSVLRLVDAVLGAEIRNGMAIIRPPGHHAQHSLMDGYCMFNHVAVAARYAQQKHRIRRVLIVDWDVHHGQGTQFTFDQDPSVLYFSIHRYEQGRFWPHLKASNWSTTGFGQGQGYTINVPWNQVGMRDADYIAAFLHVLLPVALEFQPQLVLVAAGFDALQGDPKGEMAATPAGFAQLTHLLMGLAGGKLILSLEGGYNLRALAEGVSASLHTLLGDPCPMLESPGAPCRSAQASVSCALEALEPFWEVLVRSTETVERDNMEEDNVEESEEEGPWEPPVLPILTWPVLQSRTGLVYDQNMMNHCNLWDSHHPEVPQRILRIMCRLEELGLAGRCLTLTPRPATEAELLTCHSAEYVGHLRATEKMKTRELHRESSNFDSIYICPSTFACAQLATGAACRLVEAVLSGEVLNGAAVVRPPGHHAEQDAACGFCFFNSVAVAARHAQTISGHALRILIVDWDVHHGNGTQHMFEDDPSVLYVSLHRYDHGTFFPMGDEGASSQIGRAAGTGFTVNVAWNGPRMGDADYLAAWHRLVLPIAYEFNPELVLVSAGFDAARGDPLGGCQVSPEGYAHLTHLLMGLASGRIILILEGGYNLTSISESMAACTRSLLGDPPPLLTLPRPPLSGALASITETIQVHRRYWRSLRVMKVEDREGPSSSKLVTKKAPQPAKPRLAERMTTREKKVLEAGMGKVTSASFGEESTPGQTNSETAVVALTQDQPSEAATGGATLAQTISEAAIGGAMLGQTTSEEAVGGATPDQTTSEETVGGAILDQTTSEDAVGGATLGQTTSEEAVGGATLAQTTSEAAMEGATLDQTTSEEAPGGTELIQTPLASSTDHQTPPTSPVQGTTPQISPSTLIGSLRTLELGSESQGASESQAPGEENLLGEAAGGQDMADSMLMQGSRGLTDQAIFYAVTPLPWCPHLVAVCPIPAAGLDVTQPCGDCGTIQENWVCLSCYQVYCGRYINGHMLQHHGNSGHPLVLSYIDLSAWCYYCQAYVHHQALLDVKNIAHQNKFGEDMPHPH
ASSAY INFO: HDAC6 enzyme activity inhibition (HDAC Fluorimetric Drug Discovery Kit)
Format: biochemical
CONDITION LABEL: human recombinant HDAC6, same protocol as HDAC1

*Q* Look at this compound and give its reported IC50. CN(C)Cc1ccc(-c2cn(Cc3ccc(-c4nnc(C(F)F)o4)cc3F)nn2)cn1 [Compound 18176]
*A* 70.9 nM

*Q* Look at this compound and give its reported IC50. FC(F)c1nnc(-c2ccc(Cn3cc(-c4ccc(CNC5COC5)cc4)nn3)nc2)o1 [Compound 4566]
*A* 39.8 nM

*Q* Look at this compound and give its reported IC50. Fc1cc(-c2nnc(C(F)F)o2)ccc1Cn1cc(-c2ccc(CN3CC[C@H](F)C3)cn2)nn1 [Compound 18185]
*A* 62 nM

----------
SYSTEM: human recombinant HDAC6 (Homo sapiens)
Construct: purchased Calbiochem Inc. 382180
ASSAY INFO: HDAC6 enzyme activity inhibition (HDAC Fluorimetric Drug Discovery Kit)
Assay type: biochemical
CONDITION LABEL: human recombinant HDAC6, same protocol as HDAC1
What pIC50 was measured for each of the following?
In textbook form, pIC50 equals minus log to base ten of the concentration in mol/L.

*Q* Look at this compound and give its reported pIC50. Fc1cc(-c2nnc(C(F)F)o2)ccc1Cn1cc(-c2ccc(CN3CCCC3)c(Cl)c2)nn1 [Compound 18713]
*A* 7.14

*Q* Look at this compound and give its reported pIC50. Fc1cc(-c2nnc(C(F)F)o2)ccc1Cn1cc(-c2ccc3c(c2)CN(C2CCC2)C3)nn1 [Compound 4518]
*A* 7.29

*Q* Look at this compound and give its reported pIC50. Fc1cc(-c2nnc(C(F)F)o2)ccc1Cn1cc(-c2ccc(CN3CCC3)cn2)nn1 [Compound 17532]
*A* 7.62

*Q* Look at this compound and give its reported pIC50. CCN1CC(c2cccc(-c3cn(Cc4ccc(-c5nnc(C(F)F)o5)cc4F)nn3)c2)C1 [Compound 4506]
*A* 7.66

*Q* Look at this compound and give its reported pIC50. Fc1cc(-c2nnc(C(F)F)o2)ccc1Cn1cc(-c2ccc(Cl)nc2)nn1 [Compound 16781]
*A* 7.04

*Q* Look at this compound and give its reported pIC50. FC(F)c1nnc(-c2ccc(Cn3cc(-c4cccc(C5CN(C6COC6)C5)c4)nn3)nc2)o1 [Compound 4505]
*A* 7.61

*Q* Look at this compound and give its reported pIC50. CC1CCN(Cc2ccc(-c3cn(Cc4ccc(-c5nnc(C(F)F)o5)cc4F)nn3)s2)CC1 [Compound 17915]
*A* 7.06

*Q* Look at this compound and give its reported pIC50. Fc1cc(-c2cn(Cc3ncc(-c4nnc(C(F)F)o4)cc3F)nn2)ccc1CN1CCCCC1 [Compound 18950]
*A* 7.06

*Q* Look at this compound and give its reported pIC50. Fc1cc(-c2nnc(C(F)F)o2)ccc1Cn1cc(-c2ccc(CN3CC[C@H](F)C3)s2)nn1 [Compound 17916]
*A* 7.05

*Q* Look at this compound and give its reported pIC50. CN(C)Cc1ccc(-c2cn(Cc3ccc(-c4nnc(C(F)F)o4)cc3F)nn2)cc1Cl [Compound 18711]
*A* 7.02

*Q* Look at this compound and give its reported pIC50. Fc1c(-c2cn(Cc3ccc(-c4nnc(C(F)F)o4)cn3)nn2)cccc1N1CCN(C2COC2)CC1 [Compound 4573]
*A* 7.67

*Q* Look at this compound and give its reported pIC50. CCN1Cc2cccc(-c3cn(Cc4ccc(-c5nnc(C(F)F)o5)cn4)nn3)c2C1 [Compound 4596]
*A* 7.19

*Q* Look at this compound and give its reported pIC50. CN1CCc2cc(-c3cn(Cc4ccc(-c5nnc(C(F)F)o5)cc4F)nn3)sc2C1 [Compound 4500]
*A* 6.92

*Q* Look at this compound and give its reported pIC50. Fc1cc(-c2nnc(C(F)F)o2)cnc1Cn1cc(-c2ccc3c(c2)CN(C2CCC2)CC3)nn1 [Compound 19004]
*A* 7.11

*Q* Look at this compound and give its reported pIC50. Fc1cc(-c2nnc(C(F)F)o2)ccc1Cn1cc(-c2cccs2)nn1 [Compound 18258]
*A* 7.07

*Q* Look at this compound and give its reported pIC50. CC(C)N1CCN(c2cc(-c3cn(Cc4ccc(-c5nnc(C(F)F)o5)cc4F)nn3)ccn2)CC1 [Compound 4635]
*A* 7.70

*Q* Look at this compound and give its reported pIC50. CN(C)Cc1cc(Cl)cc(-c2cn(Cc3ncc(-c4nnc(C(F)F)o4)cc3F)nn2)c1 [Compound 19090]
*A* 7.16

*Q* Look at this compound and give its reported pIC50. CC(C)N1CCN(c2cccc(-c3cn(Cc4ncc(-c5nnc(C(F)F)o5)cc4F)nn3)c2)CC1 [Compound 18926]
*A* 7.19

*Q* Look at this compound and give its reported pIC50. Fc1cc(-c2nnc(C(F)F)o2)ccc1Cn1cc(-c2ccnc(N3CCN(C4COC4)CC3)c2)nn1 [Compound 4636]
*A* 7.50

Every entry's value here was drawn from patent US20230257372A1.
